- method description: NCI Yeast Anticancer Drug Screen. Data for the mlh1 rad18 strain (AID 175)
- run conditions: S. cerevisiae mlh1 rad18 strain growth inhibition; at 50.0 µM; stronger effect = higher value
About 79,000 compounds went through this panel and 15% of them were active in at least one assay; those are over-represented in the sample as a whole.
recorded metric: growth inhibition (%)
Numbers only, in %.

Field: example entries. Status: answers known.
INSERT INTO results (compound, recorded_metric, recorded_number) VALUES
  ('CCc1cc(O)c([N+](=O)[O-])cc1[N+](=O)[O-]', 'growth inhibition', -7.95),
  ('CC1CN(CC2COc3ccccc3O2)C(C)CN1 (centres undefined)', 'growth inhibition', 34.2),
  ('CCOC(=O)CN/N=C(\N)CSS(=O)(=O)O', 'growth inhibition', 3.05),
  ('Nc1ccc2cn[nH]c2c1', 'growth inhibition', -2),
  ('CCCS(=O)(=O)N/N=C(\C)c1cccs1', 'growth inhibition', -4.2),
  ('CC(=O)CC(=O)NCc1ccc2c(c1)OCO2', 'growth inhibition', -11.8),
  ('Cc1ccc(S(=O)(=O)N/N=C2\CCC3(C)C(=CCC4C3CCC3(C)C(C(C)CCCC(C)C)CCC43)C2(C)C)cc1 (centres undefined)', 'growth inhibition', -0.1),
  ('O=[N+]([O-])c1ccc(C=NCCO)cc1', 'growth inhibition', -5.4),
  ('C[OH2+].[Cl][Cu+].[Cl][Cu+].[NH-]CCC([OH2+])CC[NH-]', 'growth inhibition', 8.2),
  ('O=C(O)C(CCS)(c1ccccc1)c1ccccc1', 'growth inhibition', 2);

Quick one: give me growth inhibition for each item below, same order please.
1. CCOC(=O)n1cccc(C)c1=N
2. COc1ccccc1NC(=O)c1nc2ccc([N+](=O)[O-])cc2nc1C
3. C/C(=N\NC(N)=O)c1cc2cc([N+](=O)[O-])ccc2oc1=O
4. O=C(c1ccccc1)C12CCCC(CC1)C2 (centres undefined)
5. COc1ccc(/C=C/C(CC(NO)c2ccc(OC)cc2)=N\O)cc1 (centres undefined)

1. 27.1
2. 20.4
3. 8.5
4. 0.65
5. 3.8

This collection of values is drawn from PubChem BioAssay (NCI).
